Here, each record is paired with measured CC50 data.
Tested on: A549
Method: Cytotoxicity against human A549 cells assessed as reduction in cell viability incubated for 15 hrs by trypan blue assay
Experimental Conditions: a549, 15 h

Smiles Structure	Assayed System	CC50
CCCNc1ccc(NC(=O)c2cc(Cl)ccc2O)c(Cl)c1	A549	69.7 µM
CC(C)Nc1ccc(NC(=O)c2cc(Cl)ccc2O)c(Cl)c1	A549	82.7 µM
CCCN(CCC)c1ccc(NC(=O)c2cc(Cl)ccc2O)c(Cl)c1	A549	323 µM

###

Here, each record is paired with measured log(activity) data.
System: Respiratory syncytial virus
Method: Antiviral activity against RSV infected in human A549 cells assessed as reduction in viral titer at 10 uM incubated for 15 hrs by immunostaining analysis
Format: functional
Measurement Type: log(activity)

Smiles Structure	Assay Value
CC(C)Nc1ccc(NC(=O)c2cc(Cl)ccc2O)c(Cl)c1	1.88
O=C(Nc1ccc(N2CCOCC2)cc1Cl)c1cc(Cl)ccc1O	1.74
O=C(Nc1ccc(NCC2CCNCC2)cc1Cl)c1cc(Cl)ccc1O	-0.07
CCCC(C)(C)Nc1ccc(NC(=O)c2cc(Cl)ccc2O)c(Cl)c1	1.81
O=C(Nc1ccc(NC2CCCC2)cc1Cl)c1cc(Cl)ccc1O	1.44
O=C(Nc1ccc(N2CCCC2)cc1Cl)c1cc(Cl)ccc1O	1.51
CCCN(CCC)c1ccc(NC(=O)c2cc(Cl)ccc2O)c(Cl)c1	1.91
CC(C)(C)OC(=O)N1CCC(CNc2ccc(NC(=O)c3cc(Cl)ccc3O)c(Cl)c2)CC1	1.53
